Here, each record is paired with measured pEC50 data.
# assay-target: T1, cynomolgus CD73 on the cell surface (293T/17-cynoCD73 cells) (cynomolgus (Macaca fascicularis), UniProt P21589 27-547 (human entry))
# T1 construct: it is an ecto-domain with a His tag
# T1 chain: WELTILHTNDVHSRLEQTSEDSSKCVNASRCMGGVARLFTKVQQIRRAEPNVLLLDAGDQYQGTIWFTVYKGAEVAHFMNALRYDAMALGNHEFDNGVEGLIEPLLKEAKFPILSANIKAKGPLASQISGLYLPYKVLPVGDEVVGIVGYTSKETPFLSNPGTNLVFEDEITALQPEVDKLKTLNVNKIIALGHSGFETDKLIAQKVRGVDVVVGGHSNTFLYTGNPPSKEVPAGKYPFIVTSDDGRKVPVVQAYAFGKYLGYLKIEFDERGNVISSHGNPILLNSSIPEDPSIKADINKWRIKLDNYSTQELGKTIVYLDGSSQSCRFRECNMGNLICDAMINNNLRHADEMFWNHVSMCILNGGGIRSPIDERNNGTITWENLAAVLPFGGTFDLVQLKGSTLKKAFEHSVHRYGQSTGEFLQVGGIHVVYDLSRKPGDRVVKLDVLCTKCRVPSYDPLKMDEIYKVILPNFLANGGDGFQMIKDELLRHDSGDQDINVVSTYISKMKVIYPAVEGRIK
# procedure-text: flow cytometry on 293T/17-Cyno CD73 cells
# Description: 2×10⁶ cells resuspended in PBS buffer were distributed into 96-well plates and incubated with gradient diluted humanized antibodies for 1 h at refrigerator 4° C. or on ice, then the cells was centrifuged for 3 min 1500 rpm at 4° C. and washed three times by PBS, and diluted APC-labeled goat anti-human polyclonal antibody (Biolegend) were incubated for 30 min at refrigerator 4° C. Finally, the cells were washed three times with PBS as described above and analyzed on MACSQuant flow cytometer. […]
pEC50: −log10 of the molar value.
endpoint-label: pEC50

[
  {
    "binder": "JB24Chi (antibody, human IgG1, kappa, V domains shown, Phage antibody, chimeric human IgG1 / human kappa full chains) VH: QVQLQQSGLELVKPGASVKMSCKASGYTFTDYNMHWVKQSHGKSLEWIGYIKPHNGGTTYNPKFEGKATLTVNKSSSTAYMELRSLTSEDSAVYYCVRCDFLYWYFDVWGTGTTVTVSS VL: DIVMTQSPAIMSASLGERVTMTCTASSSVSSSYLHWYQQKPGSSPKLWIYSTSNLASGVPGRFSGSGSGTSYSLTISSMEAEDAATYYCHQYHRSPLTFGAGTKLEMKR",
    "numeric-readout": 8.20
  },
  {
    "binder": "JB94H2L1 (antibody, human IgG1, kappa, V domains shown, Humanized antibody of the 94 clone, human IgG1 / kappa) VH: QVQLVQSGAEVKKPGASVKVSCKASGYTFTSYWMHWVRQRPGQGLEWMGYINPSSGYTKSNQKFKDRVTLTADTSTSTAYMELSSLRSEDTAVYYCGRWLLSAWFAYWGQGTLVTVSS VL: DIQMTQSPSSLSASVGDRVTITCKASQDINTYLSWFQQKPGKAPKSLIYRSNILVDGVPSRFSGSGSGQDFTLTISSLQPEDFAIYYCLQYDDFPYTFGQGTKLEIKR",
    "numeric-readout": 8.10
  },
  {
    "binder": "JB24H2L1 (antibody, human IgG1, kappa, V domains shown, Humanized antibody of JB24Chi, human IgG1 / kappa) VH: QVQLVQSGAEVKKPGASVKMSCKASGYTFTDYNMHWVRQSPGKSLEWIGYIKPHNAGTTYNPKFEGRATLTVDTSASTAYMELSSLRSEDTAVYYCVRSDFLYWYFDVWGQGTTVTVSS VL: DIQMTQSPSSLSASVGDRVTITCTASSSVSSSYLHWYQQKPGKAPKLLIYSTSNLASGVPSRFSGSGSGTDFTLTISSLQPEDFATYYCHQYHRSPLTFGAGTKLEIKR",
    "numeric-readout": 8.72
  }
]
